Origin of the recorded values: paper PMC12441834

Target: human SLO3 (Homo sapiens, UniProt A8MYU2)
Construct: expressed in transfected cells
Sequence (A8MYU2 whole entry): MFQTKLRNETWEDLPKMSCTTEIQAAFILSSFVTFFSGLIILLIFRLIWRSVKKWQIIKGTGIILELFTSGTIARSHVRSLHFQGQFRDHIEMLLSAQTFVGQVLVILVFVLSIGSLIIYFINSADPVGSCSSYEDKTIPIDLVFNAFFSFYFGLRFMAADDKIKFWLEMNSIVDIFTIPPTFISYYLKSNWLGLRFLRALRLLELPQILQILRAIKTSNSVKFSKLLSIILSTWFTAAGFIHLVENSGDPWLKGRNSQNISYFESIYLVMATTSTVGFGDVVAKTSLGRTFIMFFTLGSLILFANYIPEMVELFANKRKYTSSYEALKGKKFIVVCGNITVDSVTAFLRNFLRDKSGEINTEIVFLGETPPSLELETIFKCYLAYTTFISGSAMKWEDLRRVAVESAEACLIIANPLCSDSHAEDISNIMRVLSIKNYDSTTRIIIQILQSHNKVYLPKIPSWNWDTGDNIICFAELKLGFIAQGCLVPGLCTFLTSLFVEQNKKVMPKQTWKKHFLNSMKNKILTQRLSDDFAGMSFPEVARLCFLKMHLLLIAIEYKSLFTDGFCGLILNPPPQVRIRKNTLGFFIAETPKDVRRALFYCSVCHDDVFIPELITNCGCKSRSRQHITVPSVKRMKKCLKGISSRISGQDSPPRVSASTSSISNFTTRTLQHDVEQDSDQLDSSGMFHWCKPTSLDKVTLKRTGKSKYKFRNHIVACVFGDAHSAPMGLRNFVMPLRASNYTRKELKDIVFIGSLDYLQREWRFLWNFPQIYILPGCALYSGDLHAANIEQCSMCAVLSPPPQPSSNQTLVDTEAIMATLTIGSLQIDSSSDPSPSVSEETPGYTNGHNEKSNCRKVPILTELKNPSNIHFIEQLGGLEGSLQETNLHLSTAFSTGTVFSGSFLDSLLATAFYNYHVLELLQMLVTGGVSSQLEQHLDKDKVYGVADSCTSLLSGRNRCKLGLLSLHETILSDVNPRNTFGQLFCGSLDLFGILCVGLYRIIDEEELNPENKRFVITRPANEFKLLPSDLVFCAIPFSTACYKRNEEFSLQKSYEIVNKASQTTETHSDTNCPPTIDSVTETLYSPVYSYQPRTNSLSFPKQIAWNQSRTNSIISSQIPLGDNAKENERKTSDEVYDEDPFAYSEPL
Sequence (Q8N7C0 24-313 partner): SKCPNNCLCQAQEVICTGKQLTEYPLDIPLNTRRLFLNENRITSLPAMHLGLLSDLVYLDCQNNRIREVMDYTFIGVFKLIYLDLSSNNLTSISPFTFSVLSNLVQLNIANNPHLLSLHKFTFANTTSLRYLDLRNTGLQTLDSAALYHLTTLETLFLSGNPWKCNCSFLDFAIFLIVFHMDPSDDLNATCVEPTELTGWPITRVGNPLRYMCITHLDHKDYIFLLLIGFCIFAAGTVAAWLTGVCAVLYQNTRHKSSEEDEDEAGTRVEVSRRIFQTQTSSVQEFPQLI
Assay: SLO3 patch-clamp electrophysiology, human SLO3-γ2 expressed in HEK293 cells
Type: cell-based
Settings: transfected HEK293 cells (human SLO3-γ2), whole-cell patch clamp, currents at +100 mV; read-out: hSLO3 IC50
measurement_name: pIC50
Please express pIC50 as -log10 of the molar concentration.

Here's what some known entries look like.
{"molecule": "Cc1cc(Cl)cc2sc(O[C@@H]3CCN(C(=O)CCCS(=O)(=O)c4cccc(Br)c4)C[C@@H]3F)nc12", "target_system": "human SLO3 (Homo sapiens, UniProt A8MYU2)", "reported_result": 6.23}
{"molecule": "O=C(CCCS(=O)(=O)c1ccc(Cl)cc1)N1CCC(Oc2nc3ccccc3s2)CC1", "target_system": "human SLO3 (Homo sapiens, UniProt A8MYU2)", "reported_result": 6.65}
{"molecule": "Cc1cc(Cl)cc2sc(O[C@H]3CCN(C(=O)CCCS(=O)(=O)c4cccc(Br)c4)C[C@H]3F)nc12", "target_system": "human SLO3 (Homo sapiens, UniProt A8MYU2)", "reported_result": 7.37}
{"molecule": "Cc1cc(Cl)cc2sc(O[C@H]3CCN(C(=O)CCCS(=O)(=O)c4cccc(Br)c4)C[C@@H]3F)nc12", "target_system": "human SLO3 (Homo sapiens, UniProt A8MYU2)", "reported_result": 6.95}
{"molecule": "O=C(c1ccc(OCc2nc(C3CC3)cs2)cc1)N1CCN(c2ccc(C(F)(F)F)cn2)CC1", "target_system": "human SLO3 (Homo sapiens, UniProt A8MYU2)", "reported_result": 6.35}
{"molecule": "O=C(c1ccc(OCc2ccc(OC(F)(F)F)cc2)cc1)N1CCN(c2ccc(C(F)(F)F)cn2)CC1", "target_system": "human SLO3 (Homo sapiens, UniProt A8MYU2)", "reported_result": 6.78}
{"molecule": "Cc1cc(Cl)cc2sc(OC3CCN(C(=O)CCCS(=O)(=O)c4cccc(Br)c4)CC3F)nc12 (centres unmarked)", "target_system": "human SLO3 (Homo sapiens, UniProt A8MYU2)", "reported_result": 6.87}

Proceed to the following item.
Incoming: Give the measured pIC50 of `Cc1cc(Cl)cc2sc(O[C@@H]3CCN(C(=O)CCCS(=O)(=O)c4cccc(Br)c4)C[C@H]3F)nc12` .
Outgoing: 6.34
